tested on: Candida albicans; experiment: Growth inhibition of Candida albicans ATCC 10231 at 100 ug/ml by cup-plate method relative to control; assay type: functional; conditions: read-out: GI
Decision: inhibition of growth at 100 µg/mL compared against 60%; not below it gives criterion met, below it gives criterion not met.

MOLECULE	QUALITATIVE_LABEL
COc1cccc(/C=N/c2nnc(-c3cc4ccccc4oc3=O)o2)c1	criterion met
O=c1oc2ccccc2cc1-c1nnc(/N=C/c2cccc(O)c2)o1	criterion not met
O=c1oc2ccccc2cc1-c1nnc(/N=C/c2ccccc2F)o1	criterion met
CC(=O)N1CCN(c2ccc(OCC3COC(Cn4ccnc4)(c4ccc(Cl)cc4Cl)O3)cc2)CC1 (configuration not stated)	criterion met
O=c1oc2ccccc2cc1-c1nnc(/N=C/c2ccccc2Cl)o1	criterion met
O=c1oc2ccccc2cc1-c1nnc(/N=C/c2ccccc2O)o1	criterion not met
O=c1oc2ccccc2cc1-c1nnc(/N=C/c2cccc(F)c2)o1	criterion not met
O=c1oc2ccccc2cc1-c1nnc(/N=C/c2ccc(F)cc2)o1	criterion not met
O=c1oc2ccccc2cc1-c1nnc(/N=C/c2ccc(O)cc2)o1	criterion not met
NNC(=O)c1cc2ccccc2oc1=O	criterion not met
O=c1oc2ccccc2cc1-c1nnc(/N=C/c2cccc(Cl)c2)o1	criterion met
COc1ccc(/C=N/c2nnc(-c3cc4ccccc4oc3=O)o2)cc1OC	criterion not met
CN(C)c1ccc(/C=N/c2nnc(-c3cc4ccccc4oc3=O)o2)cc1	criterion met
COc1ccccc1/C=N/c1nnc(-c2cc3ccccc3oc2=O)o1	criterion met
O=c1oc2ccccc2cc1-c1nnc(/N=C/c2ccc(Cl)cc2)o1	criterion met
